B1: Connector enhancer of kinase suppressor of ras 2, residues 9 to 71; numbered along this chain, Q8WXI2 (parent)
chain: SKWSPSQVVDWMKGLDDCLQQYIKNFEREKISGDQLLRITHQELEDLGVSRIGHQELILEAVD

# Variants of: B1
# protocol-notes: abundance fitness (aPCA) (normalised: wild type 0, dead -1); higher = more abundant; growth selection in yeast, the domain comes from the species named
# stated-conditions: Homo sapiens
Classification field: enter true (1) for abundance fitness values not below -0.4, false (0) for values below it.

variant_key=D17E discrete_label="true (1)"
variant_key=D17L discrete_label="false (0)"
variant_key=H54R discrete_label="false (0)"
variant_key=L37F discrete_label="true (1)"
variant_key=I39R discrete_label="false (0)"
variant_key=L59T discrete_label="false (0)"
variant_key=D16P discrete_label="true (1)"
variant_key=E60D discrete_label="true (1)"
variant_key=I52Y discrete_label="true (1)"
variant_key=D34K discrete_label="true (1)"
variant_key=R38Y discrete_label="false (0)"
variant_key=G14H discrete_label="false (0)"
variant_key=R38D discrete_label="true (1)"
variant_key=Y22E discrete_label="false (0)"
variant_key=R38K discrete_label="true (1)"
variant_key=I58H discrete_label="true (1)"
variant_key=E27R discrete_label="true (1)"
variant_key=L19D discrete_label="false (0)"
variant_key=L59E discrete_label="false (0)"
variant_key=N25S discrete_label="true (1)"
variant_key=I31P discrete_label="false (0)"
variant_key=K30E discrete_label="true (1)"
